Biological target: T1, Mena1-112 EVH1 domain (UniProt Q03173 1-112)
T1 construct: range 1-112
T1 sequence (Q03173 1-112 limits assumed): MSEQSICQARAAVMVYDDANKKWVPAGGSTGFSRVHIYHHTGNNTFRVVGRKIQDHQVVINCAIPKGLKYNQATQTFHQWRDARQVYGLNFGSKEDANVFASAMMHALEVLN
Assay: tryptophan fluorescence perturbation
PROPERTY_LABEL: pKd
Notebook: values listed as pKd are -log10 of the concentration (mol/L).

Query block: Quick one: pKd for PFPPTPP [PPII7] ?
Result block: 3.32
